Test: solvent given as SMILES
Details: in CC(C)=O
Property measured: absorption maximum (nm)
Response body: numeric value in nm, unit text excluded.

// absorption maximum lookup, compound = `CC1=CC(C)=[N+]2C1=C(c1ccc(N3CCCCC3)cc1)c1c(C)cc(C)n1[B-]2(F)F` , result: 495

----------
molecules and their reported absorption maximum
Assay: solvent given as SMILES
Conditions: in O
Response body: numeric value in nm, unit text excluded.

Solved entries:
[
  {
    "Smiles repr": "CCn1c(-c2ccc(-c3ccc(-c4ccc(-c5n(CC)c6ccccc6[n+]5CC)cc4)c(C)c3)cc2)[n+](CC)c2ccccc21",
    "absorption maximum [nm]": 290
  },
  {
    "Smiles repr": "Cn1c(=O)c(/N=N/c2ccc(Nc3ccccc3)c(S(=O)(=O)O)c2)c(O)c2ccccc21",
    "absorption maximum [nm]": 385
  },
  {
    "Smiles repr": "O=S(=O)([O-])c1cc(S(=O)(=O)Cl)ccc1C1=c2cc3c4c(c2Oc2c1cc1c5c2CCCN5CCC1)CCC[N+]=4CCC3",
    "absorption maximum [nm]": 589
  },
  {
    "Smiles repr": "CN(C)CCCN1c2ccccc2CCc2ccccc21",
    "absorption maximum [nm]": 275
  },
  {
    "Smiles repr": "O=[N+]([O-])c1cccs1",
    "absorption maximum [nm]": 318
  }
]

// absorption maximum lookup, molecule = `Cc1ccccc1C1=C2C=CC(=[N+](C)C)C=[C]2[Ge]([CH3])([CH3])[c]2cc(N(C)C)ccc21` , result: 635

// absorption maximum lookup, molecule = `CC[N+]1(CC)CN2C(=N1)C(C(=O)O)=Cc1cc(Cl)ccc12` , result: 377

----------
Experiment: solvent given as SMILES
Conditions: in ClCCl
Property measured: absorption maximum (nm)
Response body: numeric value in nm, unit text excluded.

[
  {
    "Smiles repr": "COc1ccc(C#Cc2c3ccccc3c3n2[B-](F)(F)[N+]2=C(C)C=C(C)C2=C3)cc1",
    "Result": 616
  }
]

Next, consider the following compound.
// absorption maximum lookup, compound = `F[B-]1(F)N2C=CN=CC2=[N+]2[N+]1=Cc1c(-c3ccccc3)cc(-c3ccccc3)n1[B-]2(F)F` , result: 528

----------
Assay: solvent given as SMILES
Conditions: in CCOC(C)=O
compounds and their reported absorption maximum
Response body: numeric value in nm, unit text excluded.

Solved entries:
[
  {
    "Smiles repr": "CCCCCCOc1ccc(N(c2ccc(OCCCCCC)cc2)c2ccc(-c3sc(-c4ccc(N(c5ccc(OCCCCCC)cc5)c5ccc(OCCCCCC)cc5)cc4)c4nc(-c5ccccc5)c(-c5ccccc5)nc34)cc2)cc1",
    "Property measured": "absorption maximum",
    "Result": 594
  },
  {
    "Smiles repr": "CC1=[N+]2C(=C(c3ccc(C(=O)c4ccccc4)cc3)c3ccc(C)n3[B-]2(F)F)C=C1c1cc2n(c1)[B-](F)(F)[N+]1=CC=CC1=C2c1c(C)cc(C)cc1C",
    "Property measured": "absorption maximum",
    "Result": 601.5
  },
  {
    "Smiles repr": "CS(=O)(=O)c1ccc(-c2cc3ccc(N)cc3c(=O)o2)cc1",
    "Property measured": "absorption maximum",
    "Result": 356
  },
  {
    "Smiles repr": "CN(C)CCNc1ccc([N+](=O)[O-])cc1[N+](=O)[O-]",
    "Property measured": "absorption maximum",
    "Result": 347
  },
  {
    "Smiles repr": "c1cc2ccc3cc4[nH]ccc4c4ccc(c1)c2c34",
    "Property measured": "absorption maximum",
    "Result": 384
  }
]

// absorption maximum lookup, compound = `CCN(CC)c1ccc2cc(/C=C/C(=O)/C=C(O)/C=C/c3cc4ccc(N(CC)CC)cc4oc3=O)c(=O)oc2c1` , result: 514

// absorption maximum lookup, compound = `CN(C)c1ccc(C#Cc2ccc3ccc4ccc(C#Cc5ccc(N(C)C)cc5)c5ccc2c3c45)cc1` , result: 428

// absorption maximum lookup, compound = `C[Si](C)(C)c1cc2c(cc3ccc4cccc5ccc2c3c45)[nH]1` , result: 392

// absorption maximum lookup, compound = `O=[N+]([O-])c1cc(/N=N/c2cc3c4c(c2)CCCN4CCC3)cc([N+](=O)[O-])c1` , result: 513

// absorption maximum lookup, compound = `O=c1cc(C(F)(F)F)c2cc3c4c(c2o1)CCCN4CCC3` , result: 409

// absorption maximum lookup, compound = `O=C1c2ccccc2-c2ccc(N3CCN(c4ccccc4)CC3)c3cccc1c23` , result: 436

// absorption maximum lookup, compound = `CCOC(=O)CN(CC(=O)OCC)c1ccc(-c2cc(-c3ccccn3)nc(-c3ccccn3)c2)cc1` , result: 328

// absorption maximum lookup, compound = `CCn1c2ccc(/C=C/c3ccc4c(c3)c3cc(-c5nc6ccccc6s5)ccc3n4CC)cc2c2cc(-c3nc4ccccc4s3)ccc21` , result: 360

// absorption maximum lookup, compound = `F[B-]1(F)OC(c2ccccc2)=Nc2sc(-c3ccccc3)n[n+]21` , result: 331

// absorption maximum lookup, compound = `COc1ccc2n1[B-](F)(F)[N+]1=C(c3ccccc3)C=CC1=C2c1ccc(C)cc1` , result: 526

// absorption maximum lookup, compound = `c1ccc(N2c3ccccc3Sc3cc(-c4cccc5nc6ccccc6cc45)ccc32)cc1` , result: 407

// absorption maximum lookup, compound = `O=[N+]([O-])c1ccc(-c2nc3c(c4c2-c2ccccc2CC4)-c2ccccc2CC3)cc1` , result: 339

// absorption maximum lookup, compound = `CCC1=C(C)C2=Cc3c(I)c(I)cn3[B-](F)(F)[N+]2=C1C` , result: 515

// absorption maximum lookup, compound = `COc1cccc(-n2c(-c3ccc(F)cc3)nc(C)c2C)c1` , result: 288

// absorption maximum lookup, compound = `CCCCCCCCCCn1cc(C2=C(c3cn(CCCCCCCCCC)c4ccccc34)C(=O)N(C)C2=O)c2ccccc21` , result: 472

// absorption maximum lookup, compound = `CCn1c(-c2ccc(OC)cc2)c(-c2ccc3ccccc3c2)c(-c2ccc3ccccc3c2)c1-c1ccc(OC)cc1` , result: 259

----------
compounds and their reported absorption maximum
Experiment: solvent given as SMILES
Conditions: in C1CCCCC1
Response body: numeric value in nm, unit text excluded.

[
  {
    "Smiles repr": "Cc1ccccc1",
    "absorption maximum (nm)": 256.48
  },
  {
    "Smiles repr": "CN(C)c1ccc(/C=C/c2ccc(-c3nc(C#N)c(C#N)n3C)cc2)cc1",
    "absorption maximum (nm)": 376
  },
  {
    "Smiles repr": "Nc1ccc2c(C(F)(F)F)cc(=O)oc2c1",
    "absorption maximum (nm)": 348
  },
  {
    "Smiles repr": "CCCCCCCCC1(CCCCCCCC)c2cc(-c3ccc([N+](=O)[O-])cc3)ccc2-c2ccc(-c3ccc([N+](=O)[O-])cc3)cc21",
    "absorption maximum (nm)": 357
  },
  {
    "Smiles repr": "Nc1ccccc1",
    "absorption maximum (nm)": 283.13
  }
]

Next, consider the following compound.
// absorption maximum lookup, compound = `Cc1cc(C)c(B(c2c(C)cc(C)cc2C)c2cc3ccc4ccccc4c3c3c2ccc2ccccc23)c(C)c1` , result: 413

----------
molecules and their reported absorption maximum
Test: solvent given as SMILES
Details: in CCO

Solved entries:
[
  {
    "Smiles repr": "O=C1c2ccccc2-c2ccccc21",
    "absorption maximum": "379 nm"
  },
  {
    "Smiles repr": "N#Cc1c(-c2ccccc2)cc(-c2ccccc2)[nH]c1=S",
    "absorption maximum": "407 nm"
  },
  {
    "Smiles repr": "CC(C)Nc1cc(F)c(C(=O)c2cc(F)c(NC(C)C)cc2F)cc1F",
    "absorption maximum": "357 nm"
  }
]

// absorption maximum lookup, molecule = `CN(C)c1ccc(/C=C/c2cc[n+](Cc3cc(C[n+]4ccc(/C=C/c5ccc(N(C)C)cc5)cc4)cc(C[n+]4ccc(/C=C/c5ccc(N(C)C)cc5)cc4)c3)cc2)cc1` , result: 498 nm

// absorption maximum lookup, molecule = `CC(C)CCCCN1CCc2c1ccc1c3c(ccc21)C(=O)CCC3` , result: 374 nm

// absorption maximum lookup, molecule = `CCN(CC)c1cc2oc3cc(O)c(F)cc3c(=O)c2cc1F` , result: 379 nm

// absorption maximum lookup, molecule = `CN(C)c1ccc(/C=C/c2cc[n+](CCC[n+]3ccc(/C=C/c4ccc(N(C)C)cc4)cc3)cc2)cc1` , result: 500 nm

// absorption maximum lookup, molecule = `COc1ccc2c(-c3nc(-c4cccc(C)c4)no3)cc(=O)oc2c1` , result: 401 nm

// absorption maximum lookup, molecule = `CNc1cc2nc3cc(Cl)c(Cl)cc3nc2cc1NC` , result: 442 nm
